# Tested on: OVCAR-5 ovarian
# Test Description: NCI-60 one-dose screen, 48 h (100 = growth as untreated, 0 = no growth, -100 = all killed)
# Condition Info: 10 µM
The panel holds about 83,000 compounds, 20% with a hit somewhere; the sample as a whole holds those more often.

Compound	Test System	growth (%)
CCOc1ccc(Nc2nc3ccccc3nc2Nc2ccc(OCC)cc2)cc1	OVCAR-5 ovarian	107
CN1C(=O)N(C)C2SC(N/N=C/c3cccs3)=NC21 (stereo not drawn)	OVCAR-5 ovarian	42.5
CN1C(=O)/C(=C/c2ccc3ncsc3c2)NC1=NC12CC3CC(CC(O)(C3)C1)C2	OVCAR-5 ovarian	7.24
COc1ccc(C(=O)/C=C/c2ccc(Cl)c(C(F)(F)F)c2)cc1S(N)(=O)=O	OVCAR-5 ovarian	-100
CN1CCN(c2ccc(Nc3nc(NCCCNC(=O)c4ccc(F)cc4)c4sccc4n3)cc2)CC1	OVCAR-5 ovarian	78.2
CC1(C)CC[C@]23CC[C@]4(C)[C@H](CC[C@@H]5[C@@]6(C)CC[C@H](N)C(C)(C)[C@@H]6CC[C@]54C)[C@H]2[C@H]1OC3=O	OVCAR-5 ovarian	-99.9
Nc1nc(Nc2ccc(Cl)cc2)n(Cc2cccc(Br)c2)n1	OVCAR-5 ovarian	-24.5
CC(=O)Nc1ccc(-n2cnc3cc(-c4ccc(O)cc4)ccc32)cc1F	OVCAR-5 ovarian	42.7

* * *

# System: CAKI-1 renal
# Test Description: NCI-60 one-dose screen, 48 h (100 = growth as untreated, 0 = no growth, -100 = all killed)
# Condition Info: 10 µM
This is part of a sample that, as a whole, favours compounds with a hit. Of some 83,000 tested, about 20% had one in any assay.
We begin with a simple list: items and their reported growth.

Entry Smiles	growth, %
O=C(O)CCCCCCCCCCN1C(=O)/C(=C/c2cnc(-c3ccccc3)s2)SC1=S	61.6
O=C1Nc2ccc(Cl)cc2/C1=C/c1ccc(OCc2ccccn2)cc1	61.6
O=C(N/N=C/c1ccc(B(O)O)o1)c1[nH]c2ccc(Br)cc2c1-c1ccccc1	30

* * *

# System: SF-268 CNS
# Test Description: NCI-60 one-dose screen, 48 h (100 = growth as untreated, 0 = no growth, -100 = all killed)
# Condition Info: 10 µM
Compounds without any hit were thinned out: in the full panel of roughly 83,000, 20% have a hit.
We begin with a simple list: items and their reported growth.

Compound	Unit Abbreviation	growth
CC(C)c1ccc(C(=O)Nc2sc3c(c2C(N)=O)CCC(=O)C3=O)cc1	%	103
CN(CCF)c1ccc(/C=C/C(=O)c2ccc(N)cc2O)cc1	%	93.7
O=C(NO)c1ccc(CN2CCN(c3nc(-c4ccccc4)c4ccccc4n3)CC2)cc1	%	26.5
CN(C(=O)c1ccc(C(F)(F)F)cc1C(F)(F)F)c1sc2c(c1C#N)CCC(=O)C2	%	85
Cc1ccc2nc3c(nc2c1)c1cc(I)ccc1n3CCN(C)C	%	45.4
COc1cccc(COc2ccc(/C=C3\Oc4cc(O)ccc4C3=O)cc2)c1	%	17.2
O=C1N/C(=N\c2nccs2)S/C1=C\c1cccs1	%	44.7
Cc1ccc(NC(=O)c2ccc(-n3c(=O)[nH]c4ccccc4c3=O)cc2)cc1	%	84.4
CC1(c2ccccc2)NC(=O)N(CC(=O)Nc2ccc(C(=O)/C=C/C=C/c3ccccc3)cc2)C1=O (stereo not given)	%	57.1
CC1(C)CC[C@]2(C(=O)Nc3ccccc3)CC[C@]3(C)C(=CC[C@@H]4[C@@]5(C)CC[C@H](N)C(C)(C)[C@@H]5CC[C@]43C)[C@H]2C1	%	119

* * *

# System: MOLT-4 leukemia
# Test Description: NCI-60 one-dose screen, 48 h (100 = growth as untreated, 0 = no growth, -100 = all killed)
# Condition Info: 10 µM
# Experimental: Growth inhibition of the MOLT-4 human tumor cell line is measured as a screen for anti-cancer activity. Cells are grown in 96 well plates and exposed to the test compound for 48 hours. Compounds are tested at a single concentration, which is 10^-5 M for most compounds. The reported endpoint is percent growth (GI% or GIPRCNT), where numbers from 0 - 100% represent growth inhibition, and numbers from -100% - 0 represent cell death. For example, a value of 40 represents 60% growth inhibition. […]
The panel holds about 83,000 compounds, 20% with a hit somewhere; the sample as a whole holds those more often.

Entry Smiles	growth (%)
CN1C/C(=C\c2ccc(O)cc2O)c2[o+]c3cc(O)ccc3cc2C1	37.8
COc1cc(/C=C/C(=O)c2ccc(C(F)(F)F)cc2)ccc1Oc1nc(Nc2ccc(F)cc2)nc(N(C)C)n1	40.7
Cc1cccc2cc(-c3cc(-c4ccccc4)nc(=O)[nH]3)c(Cl)nc12	61.3
Cc1cc(C)nc(NS(=O)(=O)c2ccc(N/C(N)=N/c3nccc(-c4cccs4)n3)cc2)n1	96.8
CN1C(=O)/C(=C/c2nccs2)SC1=S	98.8
Cc1cccc(NC(=O)CSc2nc3ccc(F)cc3c(=O)n2-c2ccc(Cl)cc2)c1C	81.3
O=C(Nc1cccc(C(F)(F)F)c1)c1cncc(C#Cc2cnc3ccc(N4CCOCC4)nn23)c1	3.44
CNCc1cccc2c1OCCCCCC[C@@](C)(O)CC1(CC1)S(=O)(=O)c1ccc(cc1)-c1cnc(N)c(n1)C(=O)N2	-44.5
COC(=O)c1c(C(=O)OC)c2n(c1C)[C@@H]([C@@H](C)[C@H]1CC[C@H]3[C@@H]4CCC5=CC(=O)CC[C@]5(C)[C@H]4CC[C@]13C)SC2	2.64

* * *

# System: SNB-19 CNS
# Test Description: NCI-60 one-dose screen, 48 h (100 = growth as untreated, 0 = no growth, -100 = all killed)
# Condition Info: 10 µM
The panel holds about 83,000 compounds, 20% with a hit somewhere; the sample as a whole holds those more often.
Parameter Measured: growth (%)

Molecule	Unit Abbreviation	Val
CC(=O)C1=C(C)NC(SCC(=O)Nc2ccc(S(=O)(=O)Nc3cc(C)on3)cc2)=NC1c1ccccc1 (stereo not drawn)	%	102
NS(=O)(=O)c1ccc(NC(=O)CSc2ccc(-c3ccc(Cl)cc3)nn2)c(Br)c1	%	27
COc1cc2c3c(n(CCCNCCO)c(=O)c2cc1OC)-c1nc2c(cc1C3=O)OCO2	%	13.7
O=C(CSc1nnc(-c2c[nH]c3ccccc23)n1-c1ccccc1)Nc1ccc(C(=O)/C=C/c2cccc([N+](=O)[O-])c2)cc1	%	86.5
CN1CCN(Cc2ccc(NC(=O)c3cncc(C#Cc4cnc5ccc(N[C@@H]6CCOC6)nn45)c3)cc2C(F)(F)F)CC1	%	-100
CC(=O)c1cc(C(=O)c2ccc3c(c2)NC(=O)CO3)n2ccc3ccccc3c12	%	69.6
CCOC(=O)C1=C(N)N(c2ccc(C)cc2)C2=C(C(=O)CC(C)(C)C2)C1c1ccccc1OC (stereo not drawn)	%	93.1
COc1cc(/C=C/C(=O)c2ccc(C(F)(F)F)cc2)ccc1Oc1nc(Nc2ccc(F)cc2)nc(N(C)C)n1	%	83
COc1cc(/C=C/C(=O)c2ccc(F)cc2)ccc1Oc1nc(Nc2ccc(F)cc2)nc(N(C)C)n1	%	68.6
Nc1cccnc1/C=N/NC(=S)NCCNC(=O)c1ccc(-n2nc(-c3ccccc3O)nc2-c2ccccc2O)cc1	%	13.2
O=C1CCC(N2Cc3c(C#CCCCNC(=O)c4ccc(NC(=O)[C@@H]5NC6(CCCCC6)[C@@]6(C(=O)Nc7cc(Cl)ccc76)[C@H]5c5cccc(Cl)c5F)cc4)cccc3C2=O)C(=O)N1 (stereo partly drawn)	%	58.8
COc1cc2c(cc1OC)CN(CCCCOc1cc(O)c3c(=O)cc(-c4ccccc4)oc3c1)CC2	%	78.3
Cc1ccc2nc(COc3ccc(C(=O)NNC(=S)NCCc4ccccc4)cc3)[nH]c2c1	%	-16.6
N#Cc1c(NC(=O)c2cccc(C(F)(F)F)c2)sc2c1CCC(O)=C2	%	42.4
COc1ccc(-c2ccc(/C=N/NC(=O)c3[nH]c4ccc(Br)cc4c3-c3ccccc3)o2)cc1	%	57.6
CC(=O)Nc1ccc(-n2cnc3cc(-c4ccc(NS(C)(=O)=O)cc4)ccc32)cc1	%	61.1
Cc1noc2c(Cc3ccc([N+](=O)[O-])cc3)nn(CC(=O)N/N=C/c3ccc(Cl)cc3)c(=O)c12	%	42.2
O=C1Nc2ccc(Cl)cc2/C1=C/c1ccc(OCc2ccccn2)cc1	%	50.7

* * *

# Tested on: SF-539 CNS
# Test Description: NCI-60 one-dose screen, 48 h (100 = growth as untreated, 0 = no growth, -100 = all killed)
# Condition Info: 10 µM
About 83,000 compounds went through this panel and 20% of them were active in at least one assay; those are over-represented in the sample as a whole.
Mark 1 for growth under 10%, 0 if at or over.

Compound	Group Label
CO[C@H]1CSS[C@@H]1Cn1nc(-c2ccc(Oc3ccccc3)cc2)c2c(N)ncnc21	0
Nc1nc(Nc2ccccc2)nn1Cc1c(Cl)cccc1Cl	0
COc1ccc(-c2cc(C(=O)N=Nc3c(O)[nH]c4ccc(F)cc34)c3ccccc3n2)cc1	0
O=[N+]([O-])c1ccc(-c2nc(-c3ccccc3)c(-c3ccccc3)n2-c2ccc(S(=O)(=O)Nc3ncccn3)cc2)cc1	0
CCOc1ccc(/C=N/NC(=O)Cn2nc(Cc3ccccc3)c3onc(C)c3c2=O)cc1	1
Cc1cccc(-c2nc(Nc3ccccc3C(=O)O)c3ccccc3n2)c1	0
O=C(c1ccc(Cl)cc1)C1[C@H](c2ccccc2Br)[C@@H](c2ccccc2)NC12C(=O)Nc1ccc(Br)cc12 (stereo not given in full)	0
O=C(Cn1nc(-c2ccccc2)ccc1=O)NNC(=S)NC1CCCCC1	0
COc1cccc(C(N)=Nc2ccc(OCCCCCCn3cncn3)cc2)c1	1
CN1C(=O)/C(=C/c2ccc3ncsc3c2)NC1=NC12CC3CC(CC(O)(C3)C1)C2	1
C[C@H]1[C@H](C)CC[C@]2(COC(=O)CCC(=O)NCC#CCN3CCNCC3)CC[C@]3(C)C(=CC[C@@H]4[C@@]5(C)CCCNC(C)(C)[C@@H]5CC[C@]43C)[C@H]12	0
CC(C)(C)c1ccc(NCc2cn(-c3ccc(C(=O)O)cc3)nc2-c2ccc(C#N)cc2)cc1	0
CCCn1c(=O)c2[nH]c(-c3ccc(OCc4nc5ccc(F)cc5[nH]4)cc3)nc2n(CCC)c1=O	1
COc1cc2c3c(n(CCCNCCO)c(=O)c2cc1OC)-c1nc2c(cc1C3=O)OCO2	1
CCOC(=O)C1=C(N)N(c2ccccc2)C2=C(C(=O)CC(C)(C)C2)C1c1ccc(Cl)cc1 (stereo not given)	0
N#Cc1c(NC(=O)c2ccc(C(F)(F)F)cc2C(F)(F)F)sc2c1CCC(=O)C2	1
CCCCCc1ccc(S(=O)(=O)N(C(C)=O)c2cc(-c3csc(N(C)C(C)=O)n3)ccc2N2CCN(C)CC2)cc1	1
CN(C(=O)c1ccc(C(F)(F)F)cc1C(F)(F)F)c1sc2c(c1C#N)CCC(=O)C2	1
CN1CCN(Cc2ccc(C(=O)Nc3cccc(Nc4ccc5c(O)cccc5n4)c3)cc2C(F)(F)F)CC1	1
COc1ccc2ncc(C#Cc3cncc(C(=O)Nc4ccc(CN5CCN(C)CC5)c(C(F)(F)F)c4)c3)n2n1	1
